The reported numbers originate from patent US20250242064A1.

- assay-method-text: in vivo
- Parameters: species or system mice
- condition-summary: male, NOD.Cg-Rag1tm1Mom Il2rgtm1Wjl/SzJ (NRG), mouse, iv, total radioactivity, Biodistribution: Spleen
Where a SMILES comes first, the peptide text is derived from it. Bridges are numbered along the chain shown (N, C = ends). [ ]: non-standard residue; d: D form. The star is where a group is joined. X3 = O=C(O)CN1CCN(CC(=O)O)CCN(CC(=O)N[C@@H](CS(=O)(=O)O)C(=O)N[C@@H](CCCCNC(=O)CCCc2ccc(Br)cc2)C(=O)*)CCN(CC(=O)O)CC1; X1 = O=C(O)CN1CCN(CC(=O)O)CCN(CC(=O)N[C@@H](CS(=O)(=O)O)C(=O)N[C@@H](CCCCNC(=O)CCCc2ccc(I)cc2)C(=O)*)CCN(CC(=O)O)CC1; 2Nal = N[C@@H](Cc1ccc2ccccc2c1)C(=O)O; Lys(iPr) = CC(C)NCCCC[C@H](N)C(=O)O
test-readout: tissue uptake at 24 h

Lookup result for CC(C)NCCCC[C@H](NC(=O)[C@H]1CCC(=O)N[C@@H](CCCCNC(=O)[C@H](CCCCNC(=O)CCCc2ccc(I)cc2)NC(=O)[C@H](CS(=O)(=O)O)NC(=O)CN2CCN(CC(=O)O)CCN(CC(=O)O)CCN(CC(=O)O)CC2)C(=O)N[C@@H](Cc2ccc(O)cc2)C(=O)N[C@@H](CCCCNC(C)C)C(=O)N[C@H](CCCNC(=N)N)C(=O)N[C@@H](Cc2ccc3ccccc3c2)C(=O)N[C@H](C)C(=O)N1)C(N)=O [[^177Lu]Lu-BL34L11, metal not drawn] (K(X1)Y[Lys(iPr)][dR][2Nal][dA][dE][Lys(iPr)]-NH2; lactam N-7) ; measured tissue uptake at 24 h: 2.13 %ID/g

Lookup result for CC(C)NCCCC[C@H](NC(=O)[C@H]1CCC(=O)N[C@@H](CCCCNC(=O)[C@H](CCCCNC(=O)CCCc2ccc(Br)cc2)NC(=O)[C@H](CS(=O)(=O)O)NC(=O)CN2CCN(CC(=O)O)CCN(CC(=O)O)CCN(CC(=O)O)CC2)C(=O)N[C@@H](Cc2ccc(O)cc2)C(=O)N[C@@H](CCCCNC(C)C)C(=O)N[C@H](CCCNC(=N)N)C(=O)N[C@@H](Cc2ccc3ccccc3c2)C(=O)N[C@H](C)C(=O)N1)C(N)=O [[^177Lu]Lu-BL34L20, metal not drawn] (K(X3)Y[Lys(iPr)][dR][2Nal][dA][dE][Lys(iPr)]-NH2; lactam N-7) ; measured tissue uptake at 24 h: 1.12 %ID/g
